- study-system: SF3b complexes (Homo sapiens, UniProt O75533+Q7RTV0)
- Construct: endogenous in cells; host or cells: Nuclear extracts; A HeLa S3 extract preparation is described for the in vitro splicing assay
- assay-notes: Scintillation proximity assay (SPA) with [3H]-labelled pladienolide probe
- Assay type: binding
- measurement-setup: SF3B1 (WT); geometric mean; read-out: SPA-ATS GMean IC50 (nM) SF3B1 (WT)
log10 of IC50 for assorted molecules
On a log10 scale: recorded IC50, unit nM.

CCCS(=O)(=O)N1CCC(N(C)c2cc(F)cc(/C=C(\C)[C@H]3OC(=O)C[C@H](O)CC[C@H](C)[C@@H](OC(=O)N4CCN(C)CC4)/C=C/[C@@H]3C)c2)CC1 ... 1.94

Query: Fill in the recorded log10 of IC50 for this molecule, with SF3b complexes (Homo sapiens, UniProt O75533+Q7RTV0) as test system: `C/C(=C\c1cc(F)cc(N2CCN(C(=O)[C@@H](C)O)CC2)c1)[C@H]1OC(=O)C[C@H](O)CC[C@H](C)[C@@H](OC(=O)N2CCN(C)CC2)/C=C/[C@@H]1C`
Result: 0.41

Query: log10 of IC50 of `C/C(=C\c1cc(F)cc(N2CCN(CC(=O)C3CC3)CC2)c1)[C@H]1OC(=O)C[C@H](O)CC[C@H](C)[C@@H](OC(=O)N2CCN(C)CC2)/C=C/[C@@H]1C` on SF3b complexes (Homo sapiens, UniProt O75533+Q7RTV0)?
Result: 0.44

Query: What is its log10 of IC50 for SF3b complexes (Homo sapiens, UniProt O75533+Q7RTV0)? Entry: `C/C(=C\c1cc(F)c2nn(CC3CC3)nc2c1)[C@H]1OC(=O)C[C@H](O)CC[C@H](C)[C@@H](OC(=O)N2CCN(C)CC2)/C=C/[C@@H]1C`
Result: 0.94

* * *

- study-system: SF3b complexes (Homo sapiens, UniProt O75533+Q7RTV0)
- Construct: endogenous in cells; host or cells: Nuclear extracts; A HeLa S3 extract preparation is described for the in vitro splicing assay
- assay-notes: Scintillation proximity assay (SPA) with [3H]-labelled pladienolide probe
- Assay type: binding
- measurement-setup: SF3B1 (WT); geometric mean; read-out: SPA-ATS GMean IC50 (nM) SF3B1 (WT)
Consider the following molecules and their measured IC50 readings.
Report the value in nM with no unit label.

C/C(=C\c1cc(F)cc(N2CCN(S(=O)(=O)c3cccnc3)CC2)c1)[C@H]1OC(=O)C[C@H](O)CC[C@H](C)[C@@H](OC(=O)N2CCN(C)CC2)/C=C/[C@@H]1C ... 12.8
C/C(=C\c1cc(F)c2cnn(CC(=O)N3CCOCC3)c2c1)[C@H]1OC(=O)C[C@H](O)CC[C@H](C)[C@@H](OC(=O)N2CCN(C)CC2)/C=C/[C@@H]1C ... 37.1

In the following, a different molecule is considered.
Query: Give its IC50 value. Item: `C/C(=C\c1cc(F)cc(N2CC[C@H](NS(C)(=O)=O)C2)c1)[C@H]1OC(=O)C[C@H](O)CC[C@H](C)[C@@H](OC(=O)N2CCN(C)CC2)/C=C/[C@@H]1C`
Result: 3.18

* * *

- study-system: SF3b complexes (Homo sapiens, UniProt O75533+Q7RTV0)
- Construct: endogenous in cells; host or cells: Nuclear extracts; A HeLa S3 extract preparation is described for the in vitro splicing assay
- assay-notes: Scintillation proximity assay (SPA) with [3H]-labelled pladienolide probe
- Type: binding
- measurement-setup: SF3B1 (WT); geometric mean; read-out: SPA-ATS GMean IC50 (nM) SF3B1 (WT)
Assign labels as follows, please: y for IC50 below 6 nM; n for IC50 equal to or exceeding 6 nM.

C/C(=C\c1cccc(S(=O)(=O)N2CC(F)(F)C2)c1)[C@H]1OC(=O)C[C@H](O)CC[C@H](C)[C@@H](OC(=O)N2CCN(C)CC2)/C=C/[C@@H]1C ... y
CNS(=O)(=O)c1cccc(/C=C(\C)[C@H]2OC(=O)CC(O)CCC(C)[C@@H](OC(=O)N3CCN(C)CC3)/C=C/[C@@H]2C)c1 (stereo in doubt) ... n
C/C(=C\c1cc(F)cc(N2CCN(CC(=O)O)CC2)c1)[C@H]1OC(=O)C[C@H](O)CC[C@H](C)[C@@H](OC(=O)N2CCNCC2)/C=C/[C@@H]1C ... n

Query: Please check: IC50 for `C/C(=C\c1cc(F)cc(N2CCOCC2)c1)[C@H]1OC(=O)C[C@H](O)CC[C@H](C)[C@@H](OC(=O)N2CCN(C(C)(C)C)CC2)/C=C/[C@@H]1C` , strictly under 6 nM or not?
Result: y

Query: Record `C/C(=C\c1cccc(S(=O)(=O)N2CCC(O)CC2)c1)[C@H]1OC(=O)C[C@H](O)CC[C@H](C)[C@@H](OC(=O)N2CCN(C)CC2)/C=C/[C@@H]1C` : is its IC50 strictly below 6 nM?
Result: y

Query: IC50 under 6 nM? Item: `C/C(=C\c1cc(F)cc(N2CC[C@@H](O)C2)c1)[C@H]1OC(=O)C[C@H](O)CC[C@H](C)[C@@H](OC(=O)N2CCN(C)CC2)/C=C/[C@@H]1C`
Result: y

Query: Hello, I'm reviewing records and need to know if IC50 of `C/C(=C\c1cc(F)cc(N2CCN(C#CF)C2=O)c1)[C@H]1OC(=O)C[C@H](O)CC[C@H](C)[C@@H](OC(=O)N2CCN(C)CC2)/C=C/[C@@H]1C` is below 6 nM. Could you check?
Result: y

Query: Lab log: compare recorded IC50 with 6 nM; is it strictly lower for `CNC(=O)Cn1ncc2c(F)cc(/C=C(\C)[C@H]3OC(=O)C[C@H](O)CC[C@H](C)[C@@H](OC(=O)N4CCN(C)CC4)/C=C/[C@@H]3C)cc21` ?
Result: n

Query: Answer whether the compound `C/C(=C\c1cc(F)cc(N(C)C2CCN(S(=O)(=O)C3CCCC3)CC2)c1)[C@H]1OC(=O)C[C@H](O)CC[C@H](C)[C@@H](OC(=O)N2CCN(C)CC2)/C=C/[C@@H]1C` has IC50 strictly less than 6 nM
Result: n

Query: # TODO verify IC50 < 6 nM strictly for this compound: `C/C(=C\c1cc(F)cc(N2CCS(=O)(=O)CC2)c1)[C@H]1OC(=O)C[C@H](O)CC[C@H](C)[C@@H](OC(=O)N(C)C)/C=C/[C@@H]1C`
Result: n

Query: Determine if `C/C(=C\c1cccc(S(=O)(=O)N2CCC(F)(F)CC2)c1)[C@H]1OC(=O)C[C@H](O)CC[C@H](C)[C@@H](OC(=O)N2CCN(C)CC2)/C=C/[C@@H]1C` shows IC50 strictly lower than 6 nM.
Result: n

Query: Here's an entry: `C/C(=C\c1cc(F)c2cnn(CC(=O)N(C)C)c2c1)[C@H]1OC(=O)C[C@H](O)CC[C@H](C)[C@@H](OC(=O)N2CCN(C)CC2)/C=C/[C@@H]1C` . Is its IC50 below 6 nM?
Result: y
